Origin of measurements: paper PMC9672040

- TARGET OR TEST SYSTEM: PRPS2 (Homo sapiens)
- Construct: His-tagged, pET-28a, expressed in E. coli BL21, Ni-Sepharose purified; the AlphaFold id for docking (AF-P60891-F1) is that of PRPS1
- ASSAY REMARKS: biochemical
- Parameters: PRPS1/2 activity by ATP consumption, Kinase-Glo luminescence
- STATED CONDITIONS: read-out: IC50 of GDP (PRPS2)

[
  {
    "MOLECULE": "Nc1nc2c(ncn2[C@@H]2O[C@H](COP(=O)(O)OP(=O)(O)O)[C@@H](O)[C@H]2O)c(=O)[nH]1 [GDP]",
    "IC50": "251 µM"
  }
]

----------
- TARGET OR TEST SYSTEM: PRPS1 (Homo sapiens)
- Construct: His-tagged, pET-28a, expressed in E. coli BL21, Ni-Sepharose purified
- ASSAY REMARKS: biochemical
- Set-up: PRPS1/2 activity by ATP consumption, Kinase-Glo luminescence
- STATED CONDITIONS: read-out: IC50 of GDP (PRPS1)
pIC50: −log10 of the molar value.

[
  {
    "INPUT SMILES": "Nc1nc2c(ncn2[C@@H]2O[C@H](COP(=O)(O)OP(=O)(O)O)[C@@H](O)[C@H]2O)c(=O)[nH]1",
    "pIC50": 3.77
  }
]

----------
- TARGET OR TEST SYSTEM: PRPS1 (Homo sapiens, UniProt P60891)
- Construct: His-tagged, pET-28a, expressed in E. coli BL21, Ni-Sepharose purified
- Sequence (P60891 2-318): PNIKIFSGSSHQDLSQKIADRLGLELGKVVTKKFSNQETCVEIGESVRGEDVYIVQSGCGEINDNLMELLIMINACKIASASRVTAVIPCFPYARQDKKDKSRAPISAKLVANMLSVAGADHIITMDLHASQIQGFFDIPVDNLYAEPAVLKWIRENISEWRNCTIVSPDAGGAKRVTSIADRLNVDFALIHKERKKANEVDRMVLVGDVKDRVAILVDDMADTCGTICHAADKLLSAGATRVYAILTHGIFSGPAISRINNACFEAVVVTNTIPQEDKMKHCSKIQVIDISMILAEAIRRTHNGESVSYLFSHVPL
- ASSAY REMARKS: biochemical
- Parameters: PRPS1/2 activity by ATP consumption, Kinase-Glo luminescence
- STATED CONDITIONS: read-out: IC50 of ADP (PRPS1)
EXPERIMENTAL READOUT: IC50 (µM)

[
  {
    "INPUT SMILES": "Nc1ncnc2c1ncn2[C@@H]1O[C@H](COP(=O)(O)OP(=O)(O)O)[C@@H](O)[C@H]1O",
    "OBSERVED MEASUREMENT": 41.3
  }
]

----------
- TARGET OR TEST SYSTEM: PRPS2 (Homo sapiens, UniProt P11908)
- Construct: His-tagged, pET-28a, expressed in E. coli BL21, Ni-Sepharose purified; the AlphaFold id for docking (AF-P60891-F1) is that of PRPS1
- Sequence (P11908 2-318): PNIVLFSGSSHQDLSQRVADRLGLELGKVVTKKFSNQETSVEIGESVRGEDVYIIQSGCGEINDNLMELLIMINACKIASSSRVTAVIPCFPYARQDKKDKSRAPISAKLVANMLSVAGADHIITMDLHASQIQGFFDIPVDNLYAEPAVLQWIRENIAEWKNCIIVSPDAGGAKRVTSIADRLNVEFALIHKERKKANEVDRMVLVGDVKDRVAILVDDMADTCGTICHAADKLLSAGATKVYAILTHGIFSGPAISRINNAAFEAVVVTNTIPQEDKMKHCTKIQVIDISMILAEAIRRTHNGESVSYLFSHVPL
- ASSAY REMARKS: biochemical
- Parameters: PRPS1/2 activity by ATP consumption, Kinase-Glo luminescence
- STATED CONDITIONS: read-out: IC50 of ADP (PRPS2)
pIC50: −log10 of the molar value.
EXPERIMENTAL READOUT: pIC50

[
  {
    "INPUT SMILES": "Nc1ncnc2c1ncn2[C@@H]1O[C@H](COP(=O)(O)OP(=O)(O)O)[C@@H](O)[C@H]1O",
    "EXPERIMENTAL READOUT": "pIC50",
    "OBSERVED MEASUREMENT": 4.11
  }
]

----------
- Tested on: HeLa Tet-on EcSTH
- Construct: HeLa with inducible Tet-on EcSTH, not induced
- ASSAY REMARKS: cells
- Set-up: Sensitivity of HeLa cells to menadione, proliferation after 48 h
- STATED CONDITIONS: Homo sapiens, 48 h, Dox-, read-out: IC50 menadione

[
  {
    "INPUT SMILES": "CC1=CC(=O)c2ccccc2C1=O",
    "IC50": "27.8 µM"
  }
]
